- target under test: Caspase-3 (Homo sapiens);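 also: Dose-response selectivity test against caspase-3 for candidate inhibitors of sentrin-specific proteases (SENPs)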
- Sequence (P42574 29-175 limits assumed): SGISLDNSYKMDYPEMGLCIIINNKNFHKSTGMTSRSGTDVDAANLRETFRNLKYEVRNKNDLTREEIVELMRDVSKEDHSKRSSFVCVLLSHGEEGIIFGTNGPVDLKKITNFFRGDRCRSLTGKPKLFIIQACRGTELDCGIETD
- Sequence (P42574 176-277 limits assumed): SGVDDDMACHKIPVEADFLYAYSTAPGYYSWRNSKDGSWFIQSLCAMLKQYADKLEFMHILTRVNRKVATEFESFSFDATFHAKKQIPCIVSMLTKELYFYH
- Format: functional
Activity calls are given as the source filed them.
// allowed return values: TRUE for active, FALSE for inactive

Here are 3 compounds together with their reported answers.
                               smiles_entry  label
0  COc1ccc(/C=N/Nc2cc(N(C)C)nc(N(C)C)n2)cc1  FALSE
1              O=C(CSc1ncnc2ccccc12)c1cccs1   TRUE
2             Cc1ccc(/C=N/N=C/c2ccc(C)s2)s1   TRUE

Lookup: What was the test verdict on "CCOC(=O)/C=C/c1ccc2oc3ccccc3c(=O)c2c1" ?
Found: TRUE

Lookup: Could you do the same for "C/C(=N\c1cccc(C)c1)c1sc2ccccc2c1O" , please?
Found: TRUE

Lookup: What about this compound? "COc1cc(NC(=O)c2cccc(Br)c2)nc(OC)n1"
Found: TRUE

Lookup: Can you check "Cc1ccc(-c2nc3sc4c(c3c(=O)n2N)CCCC4)cc1" next?
Found: TRUE
